Values from patent US20260317319A1

Target: 5-HT2C receptor (Homo sapiens, UniProt P28335)
Sequence (P28335 33-458): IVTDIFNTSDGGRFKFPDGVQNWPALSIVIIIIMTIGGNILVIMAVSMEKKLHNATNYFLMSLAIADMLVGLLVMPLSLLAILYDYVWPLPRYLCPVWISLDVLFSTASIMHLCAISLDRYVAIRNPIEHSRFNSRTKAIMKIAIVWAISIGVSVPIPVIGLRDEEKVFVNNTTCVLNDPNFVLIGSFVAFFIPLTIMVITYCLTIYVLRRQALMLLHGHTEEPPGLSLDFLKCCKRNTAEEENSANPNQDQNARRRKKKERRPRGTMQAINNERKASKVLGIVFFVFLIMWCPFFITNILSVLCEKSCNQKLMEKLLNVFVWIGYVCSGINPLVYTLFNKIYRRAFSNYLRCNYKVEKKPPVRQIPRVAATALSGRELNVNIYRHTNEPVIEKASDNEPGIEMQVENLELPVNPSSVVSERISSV
Assay: cell-based
Conditions: agonist, Ca2+ flux, Eurofins DiscoverX protocol; read-out: 5-HT2C EC50
property-label: EC50

Find the recorded EC50 belonging to `CCN(CC)C(=O)[C@@H]1C=C2c3cccc4[nH]cc(c34)C[C@H]2N(Cc2cccc(OC)c2)C1` and report it.
> 10 µM

Find the recorded EC50 belonging to `CCN(CC)C(=O)[C@@H]1C=C2c3cccc4[nH]c(Br)c(c34)C[C@H]2N(CCC(F)(F)F)C1` and report it.
> 10 µM

Find the recorded EC50 belonging to `CCC(CC)NC(=O)[C@@H]1C=C2c3cccc4[nH]c(Br)c(c34)C[C@H]2N(C)C1` and report it.
4.93 µM

Find the recorded EC50 belonging to `CCN(CC)C(=O)[C@@H]1C=C2c3cccc4[nH]cc(c34)C[C@H]2N(Cc2ccc(OC)cc2)C1` and report it.
> 10 µM

Find the recorded EC50 belonging to `CC[C@@H](C)NC(=O)[C@@H]1C=C2c3cccc4[nH]c(Br)c(c34)C[C@H]2N(C)C1` and report it.
> 10 µM

Find the recorded EC50 belonging to `CCN(CC)C(=O)[C@@H]1C=C2c3cccc4[nH]cc(c34)C[C@H]2N(Cc2ccc(C)cc2)C1` and report it.
0.00406 µM

Find the recorded EC50 belonging to `CCC[C@@H](C)NC(=O)[C@@H]1C=C2c3cccc4[nH]c(Br)c(c34)C[C@H]2N(C)C1` and report it.
> 10 µM

Find the recorded EC50 belonging to `CCN(CC)C(=O)[C@@H]1C=C2c3cccc4[nH]cc(c34)C[C@H]2N(Cc2cccc(F)c2)C1` and report it.
> 10 µM

Find the recorded EC50 belonging to `CCN(CC)C(=O)[C@@H]1C=C2c3cccc4[nH]cc(c34)C[C@H]2N(Cc2ccc(F)c(F)c2)C1` and report it.
> 10 µM
